Test system: NOMO1
Test: cell viability relative to DMSO control; higher = less cytotoxic
Conditions: RPMI 5 mM glucose + 10% FBS; 48 h; 15.4 µM
The reader will find reported cell viability values listed item by item below.
# unit: % | format: bare number

Please review the entries below; each comes with its answer.
CC[C@]1(O)C[C@H]2CN(CCC3=C([NH]C4=C3C=CC=C4)[C@@](C2)(C(=O)OC)C5=CC6=C(C=C5OC)N(C=O)[C@H]7[C@](O)([C@H](OC(C)=O)[C@]8(CC)\C=C/C[N@@]9CC[C@]67[C@H]89)C(=O)OC)C1    30.4
COc1ccc(Cc2nccc3cc(OC)c(OC)cc23)cc1OC    114
CCNC(=O)C[C@@H]1\N=C(C2=CC=C(Cl)C=C2)/C3=C(C=CC(=C3)OC)[N]4C(=NN=C14)C    26.7
CC[C@H]1OC(=O)[C@H](C)[C@@H](O[C@H]2C[C@@](C)(OC)[C@@H](O)[C@H](C)O2)[C@H](C)[C@@H](O[C@@H]2O[C@@H](C)C[C@H](N(C)C)[C@H]2O)[C@](C)(O)C[C@@H](C)C(=O)[C@H](C)[C@@H](O)[C@]1(C)O    88.8
Clc1ccc(C2(c3ccc(-c4cn[nH]c4)cc3)CCNCC2)cc1    65.6

Return reported cell viability; argument: CNC(=O)[C@H](Cc1ccccc1)NC(=O)[C@H](CC(C)C)[C@H](CSc1cccs1)C(=O)NO
78.3

Return reported cell viability; argument: COc1ccc(/C=C\c2cc(OC)c(OC)c(OC)c2)cc1O
19

Return reported cell viability; argument: C#CCN(C)[C@H](C)Cc1ccccc1
78.9

Return reported cell viability; argument: Nc1ccccc1NC(=O)c1ccc(CNc2nccc(-c3cccnc3)n2)cc1
9.84

Return reported cell viability; argument: CN(N=O)C(=O)N[C@H]1C(O)OC(CO)[C@@H](O)[C@@H]1O (stereo partly specified)
88

Return reported cell viability; argument: Cc1cc(O)c2c3c4c(cc(O)c13)C(C)(C)C(=O)c1c(O)cc(O)c(c1-4)C2=O
85.2

Return reported cell viability; argument: Cl.c1cnc2cc3c(cc2n1)C1CNCC3C1
110

Return reported cell viability; argument: CC/1=C/N([C@@H]2C[C@@H](O)[C@H](CO)O2)C(=O)NC1=O
83.7

Return reported cell viability; argument: C=C(C)[C@@H]1CC[C@]2(C)CC[C@]3(C)[C@H](CC[C@@H]4[C@@]5(C)CC[C@H](O)C(C)(C)[C@@H]5CC[C@]43C)[C@@H]12
130

Return reported cell viability; argument: Fc1ccc(C(c2ccc(F)cc2)N2CCN(C/C=C/c3ccccc3)CC2)cc1
115

Return reported cell viability; argument: CCC1=C[C@@H]2CN(C1)Cc1c([nH]c3ccccc13)[C@@](C(=O)OC)(c1cc3c(cc1OC)N(C)[C@H]1[C@@](O)(C(=O)OC)[C@H](OC(C)=O)[C@]4(CC)C=CCN5CC[C@]31[C@@H]54)C2
29.2

###

Test system: NOMO1
Experiment: cell viability relative to DMSO control; higher = less cytotoxic
Conditions: HPLM + 10% dialyzed FBS; 48 h; 15.4 µM
Measurement Name: cell viability (%)
# unit: % | format: bare number

Please review the entries below; each comes with its answer.
CC[C@H]1OC(=O)[C@H](C)[C@@H](O[C@H]2C[C@@](C)(OC)[C@@H](O)[C@H](C)O2)[C@H](C)[C@@H](O[C@@H]2O[C@@H](C)C[C@H](N(C)C)[C@H]2O)[C@](C)(O)C[C@@H](C)C(=O)[C@H](C)[C@@H](O)[C@]1(C)O    63.4
C#Cc1cccc(Nc2ncnc3cc(OCCOC)c(OCCO)cc23)c1    69.9
COc1cc2nccc(Oc3ccc(NC(=O)Nc4cc(C)on4)c(Cl)c3)c2cc1OC    129
Cc1ccc(-n2nc(C(C)(C)C)cc2NC(=O)Nc2ccc(OCCN3CCOCC3)c3ccccc23)cc1    114
CC/1=C/N([C@@H]2C[C@@H](O)[C@H](CO)O2)C(=O)NC1=O    92.8

Return reported cell viability; argument: OC[C@H]1O[C@@H](Oc2ccc(O)cc2)[C@H](O)[C@@H](O)[C@@H]1O
114

Return reported cell viability; argument: O=C(Nc1ccc(OC(F)(F)F)cc1)c1sccc1NCc1ccnc2ccccc12
33.8

Return reported cell viability; argument: CN1C(=O)\C(=C/C(=C1/NC2=C(F)C=C(I)C=C2)C(=O)NOCCO)C
39.8

Return reported cell viability; argument: CO/N=C(/C(=O)N[C@@H]1C(=O)N2C(C(=O)O)=C(Cn3ccc(=N)n3CCO)CS[C@H]12)c1csc(N)n1
133

###

System: P12-Ichikawa
Test: cell viability relative to DMSO control; higher = less cytotoxic
Details: RPMI 5 mM glucose + 10% dialyzed FBS; 48 h; 0.00234 µM
The reader will find reported cell viability values listed item by item below.
Answer format reminder: number followed by unit.

Please review the entries below; each comes with its answer.
Cc1cc2c(C(C)C)c(O)c(O)c(C=O)c2c(O)c1-c1c(C)cc2c(C(C)C)c(O)c(O)c(C=O)c2c1O    124%
Cc1cc(Nc2ncc(Cl)c(Nc3ccccc3[S+](=O)([O-])C(C)C)n2)c(OC(C)C)cc1C1CCNCC1    117%
C#Cc1cccc(Nc2ncnc3cc(OCCOC)c(OCCO)cc23)c1    110%

Okay, next one:
Return reported cell viability; argument: O=C(NC1CCOCC1)c1ccc(-c2cc(-c3c[nH]nc3-c3ccccn3)ccn2)cc1
109%

###

The reader will find reported cell viability values listed item by item below.
Tested on: NOMO1
Experiment: cell viability relative to DMSO control; higher = less cytotoxic
Settings: RPMI 5 mM glucose + 10% FBS; 48 h; 46.1 µM
# unit: % | format: bare number

Which cell viability is reported with NOMO1 for this entry: CC(=O)N1CCN(c2ccc(OCc3nn(C)c(C)c3-c3cccc4c(CCCOc5cc(C)c(Cl)c(C)c5)c(C(=O)O)n(Cc5cccnc5)c34)cc2)CC1 ?
94.6

Which cell viability is reported with NOMO1 for this entry: O=C/1\C=C(/OC(=C1)/C2=C3SC4=C(SC3=CC=C2)C=CC=C4)N5CCOCC5 ?
90.3

Which cell viability is reported with NOMO1 for this entry: COCCOC(=O)C/1=C(C)/NC/2=C(C1C3=CC=CC(=C3)O)/C(=O)CC(C2)C4=C(OC)C=CC=C4 (stereo not drawn) ?
78.5

Which cell viability is reported with NOMO1 for this entry: CN(C)Cc1ccc(-c2nc3cccc4c3n2CCNC4=O)cc1 ?
104

Which cell viability is reported with NOMO1 for this entry: CC/1=C/N([C@@H]2C[C@@H](O)[C@H](CO)O2)C(=O)NC1=O ?
66.4

Which cell viability is reported with NOMO1 for this entry: C#CCN(C)[C@H](C)Cc1ccccc1 ?
77.5

Which cell viability is reported with NOMO1 for this entry: COC1=CC=C2Nc3cc(Cl)ccc3C(N=C3C=C(CN4CCCC4)C(=O)C(CN4CCCC4)=C3)=C2N1 ?
119

Which cell viability is reported with NOMO1 for this entry: C[C@H]([C@H](O)CCC(C)(C)O)[C@H]1CC[C@@]2(O)C/3=C/C(=O)[C@@H]4C[C@@H](O)[C@@H](O)C[C@]4(C)[C@H]3CC[C@]12C ?
104

Which cell viability is reported with NOMO1 for this entry: Cc1ccc(-n2nc(C(C)(C)C)cc2NC(=O)Nc2ccc(OCCN3CCOCC3)c3ccccc23)cc1 ?
98.1

Which cell viability is reported with NOMO1 for this entry: OCc1ccccc1O[C@@H]1O[C@H](CO)[C@@H](O)[C@H](O)[C@H]1O ?
98.7

###

Tested on: NOMO1
Assay: cell viability relative to DMSO control; higher = less cytotoxic
Settings: RPMI 5 mM glucose + 10% FBS; 48 h; 0.000781 µM
The reader will find reported cell viability values listed item by item below.
# unit: % | format: bare number

Please review the entries below; each comes with its answer.
CC(C)(C)OC(=O)CN(Cc1ccc(Cl)cc1)Cc1ccc([N+](=O)[O-])s1    88.9
O=C1Nc2ccccc2/C1=C1\Nc2ccccc2C1=O    93
Cc1nc(Nc2ncc(C(=O)Nc3c(C)cccc3Cl)s2)cc(N2CCN(CCO)CC2)n1    104

Return reported cell viability; argument: CN(N=O)C(=O)N[C@H]1C(O)OC(CO)[C@@H](O)[C@@H]1O (some centres not stated)
77.7

###

The reader will find reported cell viability values listed item by item below.
System: SEM cells
Assay: cell viability relative to DMSO control; higher = less cytotoxic
Details: RPMI 5 mM glucose + 10% dialyzed FBS; 48 h; 0.00234 µM
# unit: % | format: bare number

Please review the entries below; each comes with its answer.
CCC[C@@H]1C[C@@H](C(=O)N[C@@H]([C@H]2O[C@H](SC)[C@H](O)[C@@H](O)[C@H]2O)[C@@H](C)O)N(C)C1.Cl    119
CN(N=O)C(=O)N[C@H]1C(O)OC(CO)[C@@H](O)[C@@H]1O (stereo partly drawn)    74
CN(C)CCOC(c1ccccc1)c1ccccc1    96.8

Which cell viability is reported with SEM cells for this entry: OCc1ccccc1O[C@@H]1O[C@H](CO)[C@@H](O)[C@H](O)[C@H]1O ?
121

Which cell viability is reported with SEM cells for this entry: O=C1CSC(=O)N1C(CCc1ccncc1)COc1ccc(-c2cccc([N+](=O)[O-])c2)cc1 (stereo not drawn) ?
131

Which cell viability is reported with SEM cells for this entry: O=C(Nc1ccc(OC(F)(F)F)cc1)c1sccc1NCc1ccnc2ccccc12 ?
117

Which cell viability is reported with SEM cells for this entry: CO[C@H]1C[C@@H]2CC[C@@H](C)[C@@](O)(O2)C(=O)C(=O)N2CCCC[C@H]2C(=O)O[C@H]([C@H](C)C[C@@H]2CC[C@@H](OP(C)(C)=O)[C@H](OC)C2)CC(=O)[C@H](C)/C=C(\C)[C@@H](O)[C@@H](OC)C(=O)[C@H](C)C[C@H](C)/C=C/C=C/C=C/1C ?
98.1

Which cell viability is reported with SEM cells for this entry: COc1cc2ncnc(-n3nc(-c4ccccn4)nc3N)c2cc1OC ?
93.8
